Below: a set of entries, each annotated with reported mass density.
Conditions: 293.15 K; 101.33 kPa; Liquid; Vibrating tube method

>  <Molecule>
CCCCc1cccc[n+]1CC.O=S(=O)([N-]S(=O)(=O)C(F)(F)F)C(F)(F)F

>  <Measure unit>
kg/m3

>  <mass density>
1413.7

$$$$
>  <Molecule>
CCc1cccc[n+]1CC.O=S(=O)([N-]S(=O)(=O)C(F)(F)F)C(F)(F)F [1,2-diethylpyridin-1-ium bis((trifluoromethyl)sulfonyl)imide]

>  <Measure unit>
kg/m3

>  <mass density>
1475.5

$$$$
>  <Molecule>
CCCCCCCc1cccc[n+]1CC.O=S(=O)([N-]S(=O)(=O)C(F)(F)F)C(F)(F)F

>  <Measure unit>
kg/m3

>  <mass density>
1325.1

$$$$
>  <Molecule>
CCCCCCc1cccc[n+]1CC.O=S(=O)([N-]S(=O)(=O)C(F)(F)F)C(F)(F)F

>  <Measure unit>
kg/m3

>  <mass density>
1348.7

$$$$
>  <Molecule>
CCCCCc1cccc[n+]1CC.O=S(=O)([N-]S(=O)(=O)C(F)(F)F)C(F)(F)F

>  <Measure unit>
kg/m3

>  <mass density>
1375.6

$$$$
>  <Molecule>
CCCc1cccc[n+]1CC.O=S(=O)([N-]S(=O)(=O)C(F)(F)F)C(F)(F)F

>  <Measure unit>
kg/m3

>  <mass density>
1452

$$$$
>  <Molecule>
CCCCCCCCc1cccc[n+]1CC.O=S(=O)([N-]S(=O)(=O)C(F)(F)F)C(F)(F)F

>  <Measure unit>
kg/m3

>  <mass density>
1301.7

$$$$

----------
Settings: 293.15 K; 101.33 kPa; Liquid; Concentric cylinders viscometry
Below: a set of entries, each annotated with reported viscosity.

>  <Compound>
CCCCCCc1cccc[n+]1CC.O=S(=O)([N-]S(=O)(=O)C(F)(F)F)C(F)(F)F

>  <Measure unit>
mPa·s

>  <viscosity>
159.82

$$$$
>  <Compound>
CCc1cccc[n+]1CC.O=S(=O)([N-]S(=O)(=O)C(F)(F)F)C(F)(F)F [1,2-diethylpyridin-1-ium bis((trifluoromethyl)sulfonyl)imide]

>  <Measure unit>
mPa·s

>  <viscosity>
87.87

$$$$
>  <Compound>
CCCCCCCCc1cccc[n+]1CC.O=S(=O)([N-]S(=O)(=O)C(F)(F)F)C(F)(F)F

>  <Measure unit>
mPa·s

>  <viscosity>
216.19

$$$$
>  <Compound>
CCCCCCCc1cccc[n+]1CC.O=S(=O)([N-]S(=O)(=O)C(F)(F)F)C(F)(F)F

>  <Measure unit>
mPa·s

>  <viscosity>
180.53

$$$$

----------
Settings: 313.15 K; 101.33 kPa; Liquid; Concentric cylinders viscometry

>  <Molecule>
CCCCCCCc1cccc[n+]1CC.O=S(=O)([N-]S(=O)(=O)C(F)(F)F)C(F)(F)F

>  <viscosity, mPa·s>
63.6

$$$$
>  <Molecule>
CCCCCCc1cccc[n+]1CC.O=S(=O)([N-]S(=O)(=O)C(F)(F)F)C(F)(F)F

>  <viscosity, mPa·s>
57.52

$$$$
>  <Molecule>
CCc1cccc[n+]1CC.O=S(=O)([N-]S(=O)(=O)C(F)(F)F)C(F)(F)F [1,2-diethylpyridin-1-ium bis((trifluoromethyl)sulfonyl)imide]

>  <viscosity, mPa·s>
36.91

$$$$
>  <Molecule>
CCCc1cccc[n+]1CC.O=S(=O)([N-]S(=O)(=O)C(F)(F)F)C(F)(F)F

>  <viscosity, mPa·s>
51.37

$$$$
>  <Molecule>
CCCCc1cccc[n+]1CC.O=S(=O)([N-]S(=O)(=O)C(F)(F)F)C(F)(F)F

>  <viscosity, mPa·s>
53.17

$$$$
>  <Molecule>
CCCCCCCCc1cccc[n+]1CC.O=S(=O)([N-]S(=O)(=O)C(F)(F)F)C(F)(F)F

>  <viscosity, mPa·s>
73.88

$$$$
>  <Molecule>
CCCCCc1cccc[n+]1CC.O=S(=O)([N-]S(=O)(=O)C(F)(F)F)C(F)(F)F

>  <viscosity, mPa·s>
53

$$$$

----------
Conditions: 358.15 K; 101.33 kPa; Liquid; Vibrating tube method

>  <Compound>
CCCCCCCc1cccc[n+]1CC.O=S(=O)([N-]S(=O)(=O)C(F)(F)F)C(F)(F)F

>  <Measure unit>
kg/m3

>  <mass density>
1270.1

$$$$
>  <Compound>
CCc1cccc[n+]1CC.O=S(=O)([N-]S(=O)(=O)C(F)(F)F)C(F)(F)F [1,2-diethylpyridin-1-ium bis((trifluoromethyl)sulfonyl)imide]

>  <Measure unit>
kg/m3

>  <mass density>
1414.6

$$$$
>  <Compound>
CCCc1cccc[n+]1CC.O=S(=O)([N-]S(=O)(=O)C(F)(F)F)C(F)(F)F

>  <Measure unit>
kg/m3

>  <mass density>
1391.9

$$$$
>  <Compound>
CCCCc1cccc[n+]1CC.O=S(=O)([N-]S(=O)(=O)C(F)(F)F)C(F)(F)F

>  <Measure unit>
kg/m3

>  <mass density>
1355.4

$$$$
>  <Compound>
CCCCCCCCc1cccc[n+]1CC.O=S(=O)([N-]S(=O)(=O)C(F)(F)F)C(F)(F)F

>  <Measure unit>
kg/m3

>  <mass density>
1247.6

$$$$
>  <Compound>
CCCCCCc1cccc[n+]1CC.O=S(=O)([N-]S(=O)(=O)C(F)(F)F)C(F)(F)F

>  <Measure unit>
kg/m3

>  <mass density>
1292.9

$$$$
>  <Compound>
CCCCCc1cccc[n+]1CC.O=S(=O)([N-]S(=O)(=O)C(F)(F)F)C(F)(F)F

>  <Measure unit>
kg/m3

>  <mass density>
1318.6

$$$$

----------
Below: a set of entries, each annotated with reported viscosity.
Settings: 318.15 K; 101.33 kPa; Liquid; Concentric cylinders viscometry
Recorded endpoint: viscosity (mPa·s)

>  <Compound>
CCCCCCCCc1cccc[n+]1CC.O=S(=O)([N-]S(=O)(=O)C(F)(F)F)C(F)(F)F

>  <Numeric result>
59

$$$$
>  <Compound>
CCCCc1cccc[n+]1CC.O=S(=O)([N-]S(=O)(=O)C(F)(F)F)C(F)(F)F

>  <Numeric result>
43.11

$$$$
>  <Compound>
CCCCCCc1cccc[n+]1CC.O=S(=O)([N-]S(=O)(=O)C(F)(F)F)C(F)(F)F

>  <Numeric result>
46.51

$$$$
>  <Compound>
CCCCCc1cccc[n+]1CC.O=S(=O)([N-]S(=O)(=O)C(F)(F)F)C(F)(F)F

>  <Numeric result>
43.06

$$$$
>  <Compound>
CCCc1cccc[n+]1CC.O=S(=O)([N-]S(=O)(=O)C(F)(F)F)C(F)(F)F

>  <Numeric result>
41.8

$$$$
>  <Compound>
CCc1cccc[n+]1CC.O=S(=O)([N-]S(=O)(=O)C(F)(F)F)C(F)(F)F [1,2-diethylpyridin-1-ium bis((trifluoromethyl)sulfonyl)imide]

>  <Numeric result>
30.88

$$$$
>  <Compound>
CCCCCCCc1cccc[n+]1CC.O=S(=O)([N-]S(=O)(=O)C(F)(F)F)C(F)(F)F

>  <Numeric result>
51.17

$$$$

----------
Conditions: 328.15 K; 101.33 kPa; Liquid; Concentric cylinders viscometry
Please mark met if the recorded viscosity is equal to or greater than 30 mPa·s, and not met if it falls below.

>  <Compound>
CCCCCCc1cccc[n+]1CC.O=S(=O)([N-]S(=O)(=O)C(F)(F)F)C(F)(F)F

>  <Answer label>
met

$$$$
>  <Compound>
CCCc1cccc[n+]1CC.O=S(=O)([N-]S(=O)(=O)C(F)(F)F)C(F)(F)F

>  <Answer label>
not met

$$$$
>  <Compound>
CCc1cccc[n+]1CC.O=S(=O)([N-]S(=O)(=O)C(F)(F)F)C(F)(F)F [1,2-diethylpyridin-1-ium bis((trifluoromethyl)sulfonyl)imide]

>  <Answer label>
not met

$$$$
>  <Compound>
CCCCCCCCc1cccc[n+]1CC.O=S(=O)([N-]S(=O)(=O)C(F)(F)F)C(F)(F)F

>  <Answer label>
met

$$$$
>  <Compound>
CCCCCCCc1cccc[n+]1CC.O=S(=O)([N-]S(=O)(=O)C(F)(F)F)C(F)(F)F

>  <Answer label>
met

$$$$

----------
Details: 343.15 K; 101.33 kPa; Liquid; Concentric cylinders viscometry
± gives the expanded uncertainty stated by the source.

>  <Compound>
CCCCCCCCc1cccc[n+]1CC.O=S(=O)([N-]S(=O)(=O)C(F)(F)F)C(F)(F)F

>  <viscosity>
23.71 ± 0.14 mPa·s

$$$$
>  <Compound>
CCCc1cccc[n+]1CC.O=S(=O)([N-]S(=O)(=O)C(F)(F)F)C(F)(F)F

>  <viscosity>
18.15 ± 0.11 mPa·s

$$$$
>  <Compound>
CCCCCCCc1cccc[n+]1CC.O=S(=O)([N-]S(=O)(=O)C(F)(F)F)C(F)(F)F

>  <viscosity>
21.16 ± 0.13 mPa·s

$$$$
>  <Compound>
CCCCc1cccc[n+]1CC.O=S(=O)([N-]S(=O)(=O)C(F)(F)F)C(F)(F)F

>  <viscosity>
18.45 ± 0.11 mPa·s

$$$$
>  <Compound>
CCCCCc1cccc[n+]1CC.O=S(=O)([N-]S(=O)(=O)C(F)(F)F)C(F)(F)F

>  <viscosity>
18.44 ± 0.11 mPa·s

$$$$
>  <Compound>
CCCCCCc1cccc[n+]1CC.O=S(=O)([N-]S(=O)(=O)C(F)(F)F)C(F)(F)F

>  <viscosity>
19.59 ± 0.12 mPa·s

$$$$
>  <Compound>
CCc1cccc[n+]1CC.O=S(=O)([N-]S(=O)(=O)C(F)(F)F)C(F)(F)F [1,2-diethylpyridin-1-ium bis((trifluoromethyl)sulfonyl)imide]

>  <viscosity>
14.86 ± 0.091 mPa·s

$$$$
